// data source = patent EP4692094A1

biological target: UniProtKB O95251
Sequence (O95251 whole entry): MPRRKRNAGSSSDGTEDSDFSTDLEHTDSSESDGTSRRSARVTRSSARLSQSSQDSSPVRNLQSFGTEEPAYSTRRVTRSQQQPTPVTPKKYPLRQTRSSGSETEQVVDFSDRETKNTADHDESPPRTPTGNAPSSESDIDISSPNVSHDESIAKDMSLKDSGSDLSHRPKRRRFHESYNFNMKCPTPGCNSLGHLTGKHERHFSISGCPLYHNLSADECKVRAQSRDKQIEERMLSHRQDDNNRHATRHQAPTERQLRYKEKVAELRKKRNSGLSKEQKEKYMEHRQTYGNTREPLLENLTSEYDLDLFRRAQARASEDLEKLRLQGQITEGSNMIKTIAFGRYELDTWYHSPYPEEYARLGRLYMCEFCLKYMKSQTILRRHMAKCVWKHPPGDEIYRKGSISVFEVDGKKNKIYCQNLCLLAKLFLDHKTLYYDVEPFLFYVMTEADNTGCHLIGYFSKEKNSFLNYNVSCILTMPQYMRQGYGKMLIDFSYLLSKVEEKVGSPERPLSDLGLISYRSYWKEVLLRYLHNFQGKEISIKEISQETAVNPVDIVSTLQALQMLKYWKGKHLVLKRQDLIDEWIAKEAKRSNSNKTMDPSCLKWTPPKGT
pIC50: −log10 of the molar value.

# Smiles Str, pIC50
measured = [
    ("COc1cc2c(cc1S(=O)(=O)Nc1noc3cc(Cn4cccn4)nc(OC)c13)OCC2", 7.56),
    ("COc1cc2c(cc1S(=O)(=O)Nc1noc3cc(Cn4cccn4)nc(OC)c13)CCCC2", 7.27),
    ("COc1cc2c(cc1S(=O)(=O)Nc1noc3cc(Cn4cccn4)nc(OC)c13)CCCO2", 7.06),
    ("COc1ccc2c(c1S(=O)(=O)Nc1noc3cc(Cn4cccn4)nc(OC)c13)OCC2", 7.32),
    ("COc1ccc2ccoc2c1S(=O)(=O)Nc1noc2cc(Cn3cccn3)nc(OC)c12", 8.13),
]
